Entries and their GI50
- Test system: HOP-92
- method-description: NCI tumour cell line growth inhibition, 48 h
Calls of active or inactive are those of the source. No stated cut-off is given here; in the data, active = GI50 up to about 1.1 µM and inactive = higher. Non-standard residues stand in square brackets, D forms with d. Residues, ends and D or L forms follow the SMILES beside them. *: point of attachment. Ac5c = NC1(C(=O)O)CCCC1; Boc = CC(C)(C)OC(=O)*; tBu = CC(C)(C)*

Here are 5 compounds together with their reported answers.
{"compound": "CC(=O)Nc1ccc(C(=O)NN2C(=O)C(Cl)C2c2cc(Br)ccc2O)cc1 (configuration not stated)", "GI50": "15.2 µM (inactive)"}
{"compound": "COC(=O)[C@@H]1CN(C(=O)CCc2ccccc2)C(=O)N1C(=O)OCc1ccccc1", "GI50": "> 100 µM (inactive)"}
{"compound": "Cn1cc2c(n1)c(N/N=C/c1ccccc1)nn1nnnc21", "GI50": "> 100 µM (inactive)"}
{"compound": "O=C(O)c1c2c(cc3c1CC(Cc1ccccc1)C3=O)CCC2 (configuration not stated)", "GI50": "29.5 µM (inactive)"}
{"compound": "CC(OC(C)(C)C)C1NC(=O)C(CCCCNC(=O)OC(C)(C)C)NC(=O)C(Cc2c[nH]c3ccccc23)NC(=O)C(Cc2ccccc2)NC(=O)C2(CCCC2)NC(=O)C(Cc2ccccc2)NC1=O (configuration not stated) (cyclo([Ac5c]FWK(Boc)T(tBu)F); configuration not given here)", "GI50": "23.5 µM (inactive)"}

**Query** Test system HOP-92; read-out GI50; what value for "CCOC(=O)c1cn2c(n1)sc1cc(Cl)ccc12" ?
**Result** > 100 µM (inactive)

**Query** Likewise for COC(=O)C(Cc1c[nH]c2ccccc12)NC1=Nc2ccncc2S(=O)(=O)N1c1ccccc1 (configuration not stated) ?
**Result** 20.7 µM (inactive)

----------
- System: Hs-578T
- method-description: NCI tumour cell line growth inhibition, 48 h
Active and inactive are the calls of the source. Rule as the data show it: active = GI50 up to about 1.1 µM and inactive = higher.
Assign a class; possible classes are active, inactive

Consider the worked cases shown below.
{"molecule": "O=C(O)c1c2c(cc3c1CC(Cc1ccccc1)C3=O)CCC2 (configuration not stated)", "answer-label": "inactive"}
{"molecule": "CC1(C)O[C@H]2OC(CO)C(N=[N+]=[N-])[C@H]2O1 (some centres not stated)", "answer-label": "inactive"}
{"molecule": "CC(=O)N1CN2C(=O)CCC2c2cc(C)ccc21 (configuration not stated)", "answer-label": "inactive"}
{"molecule": "CN(Cc1cnc2nc(N)nc(N)c2n1)c1ccc(C(=O)NC(CCC(=O)NC(CC(P(=O)(O)O)P(=O)(O)O)C(=O)O)C(=O)O)cc1 (configuration not stated)", "answer-label": "inactive"}
{"molecule": "CCCC(O)[C@@]1(CC)CC(C)C(O)(C2(C)C[C@H](C)[C@@H](C(CC)C(=O)C(C)[C@@H](O)[C@H](C)C3OC(O)(C(CC)C(=O)O)[C@@H](C)C(O)C3CC)O2)O1 (some centres not stated)", "answer-label": "active"}

**Query** For "CC(C)C(=O)CP(=O)(O)O" , what call appears in the results of this test?
**Result** inactive

**Query** Another molecule to check: Cc1nnc(N)nc1C/C=C/C(Sc1ccc(Cl)cc1)c1ccccc1 (configuration not stated)
**Result** inactive

----------
- System: DU-145
- method-description: NCI tumour cell line growth inhibition, 48 h
The source made the active and inactive calls. Cut-off read from the data, not from the text of the source: active = GI50 up to about 1.1 µM and inactive = higher.
Would you mind answering with one of these outcomes? true for active, false for inactive

{"compound": "O=NN1CCCS1(=O)=O", "answer-label": "false"}

**Query** Lab log entry: "CSC1=C(SC)SC(=C2SC3=C(SC(=C4SCCS4)S3)S2)S1" — outcome as called in the assay?
**Result** false

**Query** // repeat for C/C(=N/NC(N)=S)C(CN1CCOCC1)C(C1=C(O)c2ccccc2OC1)c1ccccc1 (configuration not stated) and report
**Result** false

**Query** Okay, and COC(=O)/C=C\c1ccc2c(c1)CC1(C2)Cc2ccc(/C=C/C(=O)OC)cc2C1 (configuration not stated) ?
**Result** false

**Query** Item: O=C1c2ccc(O)cc2OC(c2cc(O)c(O)c(O)c2)C1O (configuration not stated) [DIHYDROBINETIN]
**Result** false

**Query** Entry "Cc1cccc2c1c(=O)c1c(O)c3c(cc1n2C)OC(C)(C)C=C3" please
**Result** false

**Query** Record: "COc1cc(CNC(=O)CCCCCCCCCCSC#N)ccc1O"
**Result** false

**Query** # repeat for N#CC(N)c1ccc(OCCCCCCCCCCOc2ccc(C(N)C#N)cc2)cc1 (configuration not stated)
**Result** false

**Query** Also C/C1=C/C[C@@H](/C(C)=C/c2csc(C)n2)OC(=O)C[C@H](O)C(C)(C)C(=O)[C@H](C)[C@@H](O)[C@@H](C)CCC1 [EPOTHILONE D] , if possible.
**Result** true

**Query** Try this compound next: O=C1c2c(O)ccc(O)c2C(=O)c2c(NCCNC(=O)C(O)C(O)C(O)C(O)CO)ccc(NCCNC(=O)C(O)C(O)C(O)C(O)CO)c21 (configuration not stated)
**Result** true

Data credit: ChEMBL document CHEMBL1201862
